- target-of-assay: Protein kinase C zeta type (Homo sapiens, UniProt Q05513)
- Sequence (Q05513 whole entry): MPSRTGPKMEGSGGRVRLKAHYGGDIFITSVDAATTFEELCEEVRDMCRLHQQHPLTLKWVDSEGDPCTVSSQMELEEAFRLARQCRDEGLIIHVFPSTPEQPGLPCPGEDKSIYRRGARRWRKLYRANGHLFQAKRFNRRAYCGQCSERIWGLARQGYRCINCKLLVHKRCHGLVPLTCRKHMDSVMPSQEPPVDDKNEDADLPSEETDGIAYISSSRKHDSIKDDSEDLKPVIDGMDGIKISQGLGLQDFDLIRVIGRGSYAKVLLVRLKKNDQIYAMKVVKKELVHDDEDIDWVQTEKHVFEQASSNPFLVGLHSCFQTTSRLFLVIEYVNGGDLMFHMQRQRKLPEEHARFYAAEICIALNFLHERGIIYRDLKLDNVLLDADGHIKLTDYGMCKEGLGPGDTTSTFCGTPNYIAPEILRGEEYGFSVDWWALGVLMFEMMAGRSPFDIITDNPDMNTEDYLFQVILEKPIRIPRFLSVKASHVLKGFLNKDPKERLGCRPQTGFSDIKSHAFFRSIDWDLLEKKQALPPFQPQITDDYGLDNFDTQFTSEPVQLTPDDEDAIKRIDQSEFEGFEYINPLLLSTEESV
- test-protocol: Inhibition of Protein kinase C zeta

compound-structure | target-of-assay | IC50
O=C(N[C@H]1COCCC[C@H]1OC(=O)c1cc(O)c(C(=O)c2c(O)cccc2C(=O)O)c(O)c1)c1ccc(O)cc1 | Protein kinase C zeta type (Homo sapiens, UniProt Q05513) | > 150 µM
O=C(N[C@H]1CCCCC[C@H]1OC(=O)c1cc(O)c(C(=O)c2c(O)cccc2C(=O)O)c(O)c1)c1ccc(O)cc1 | Protein kinase C zeta type (Homo sapiens, UniProt Q05513) | > 150 µM

###

- target-of-assay: Protein kinase C beta type (Homo sapiens, UniProt P05771)
- Sequence (P05771 whole entry): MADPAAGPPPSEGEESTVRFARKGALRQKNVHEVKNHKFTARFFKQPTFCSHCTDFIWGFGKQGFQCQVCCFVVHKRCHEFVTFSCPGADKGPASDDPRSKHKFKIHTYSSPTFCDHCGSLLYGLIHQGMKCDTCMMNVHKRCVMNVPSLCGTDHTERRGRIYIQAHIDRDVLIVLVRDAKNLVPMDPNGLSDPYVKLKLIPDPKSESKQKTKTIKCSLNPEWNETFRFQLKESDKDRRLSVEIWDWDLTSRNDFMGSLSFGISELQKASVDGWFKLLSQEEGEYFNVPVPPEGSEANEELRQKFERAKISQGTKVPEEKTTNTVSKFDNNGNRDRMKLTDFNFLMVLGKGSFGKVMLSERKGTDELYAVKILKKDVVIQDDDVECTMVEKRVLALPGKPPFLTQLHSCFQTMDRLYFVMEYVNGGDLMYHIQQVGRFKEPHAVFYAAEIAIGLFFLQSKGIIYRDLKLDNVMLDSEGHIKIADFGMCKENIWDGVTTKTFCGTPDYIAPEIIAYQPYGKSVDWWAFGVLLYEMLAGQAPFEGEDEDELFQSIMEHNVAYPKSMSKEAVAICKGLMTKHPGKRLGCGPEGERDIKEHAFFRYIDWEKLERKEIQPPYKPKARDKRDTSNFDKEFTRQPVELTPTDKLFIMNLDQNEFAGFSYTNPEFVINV
- test-protocol: Inhibition of human Protein kinase C beta 2
measure: IC50 (nM)

compound | measure | result-number
O=C(N[C@H]1COCCC[C@H]1OC(=O)c1cc(O)c(C(=O)c2c(O)cccc2C(=O)O)c(O)c1)c1ccc(O)cc1 | IC50 | 3300
O=C(N[C@H]1CCCCC[C@H]1OC(=O)c1cc(O)c(C(=O)c2c(O)cccc2C(=O)O)c(O)c1)c1ccc(O)cc1 | IC50 | 430
O=C(N[C@H]1CS(=O)(=O)CCC[C@H]1OC(=O)c1cc(O)c(C(=O)c2c(O)cccc2C(=O)O)c(O)c1)c1ccc(O)cc1 | IC50 | 3600
O=C(N[C@H]1CNCCC[C@H]1OC(=O)c1cc(O)c(C(=O)c2c(O)cccc2C(=O)O)c(O)c1)c1ccc(O)cc1 (racemic) | IC50 | 44
O=C(N[C@H]1CSCCC[C@H]1OC(=O)c1cc(O)c(C(=O)c2c(O)cccc2C(=O)O)c(O)c1)c1ccc(O)cc1 | IC50 | 2400
